Target: HLA-B*40:01
Test: IEDB peptide-MHC binding, purified MHC/direct/fluorescence; filed as Kd, often an IC50 or EC50 that approximates it; bounds were set here for any values at or beyond the usual limits of such assays
Conditions: source organism: Camelpox virus M-96
assay_readout: Kd

For this sequence ( SLYKYLLLR ), measured Kd is ≥ 20 µM

###

So I've got a bunch of sequences here, and I need their pKd values.
Biological target: HLA-B*58:01
Assay: IEDB peptide-MHC binding, purified MHC/direct/fluorescence; filed as Kd, often an IC50 or EC50 that approximates it; bounds were set here for any values at or beyond the usual limits of such assays
Conditions: source organism: Yersinia pestis Nepal516
pKd: −log10 of the molar value.

For this sequence ( AFASLQDML ), measured pKd is ≤ 4.70

For this sequence ( YLHRDIFDI ), measured pKd is ≤ 4.70

The reported numbers originate from the Immune Epitope Database (IEDB).
